Test: Oral bioavailability in Sprague-Dawley rat at 0.8 mg/kg, iv or 5.8 mg/kg, po
Type: ADME, organism-based
Conditions: in vivo

[
  {
    "smiles entry": "CC(C)CCn1c(=O)c(C2=NS(=O)(=O)c3ccccc3N2)c(O)c2ccccc21",
    "bioavailability (%)": 70
  }
]

* * *

Target: RNA-directed RNA polymerase (Hepacivirus hominis, UniProt O39930)
Sequence (O39930 whole entry): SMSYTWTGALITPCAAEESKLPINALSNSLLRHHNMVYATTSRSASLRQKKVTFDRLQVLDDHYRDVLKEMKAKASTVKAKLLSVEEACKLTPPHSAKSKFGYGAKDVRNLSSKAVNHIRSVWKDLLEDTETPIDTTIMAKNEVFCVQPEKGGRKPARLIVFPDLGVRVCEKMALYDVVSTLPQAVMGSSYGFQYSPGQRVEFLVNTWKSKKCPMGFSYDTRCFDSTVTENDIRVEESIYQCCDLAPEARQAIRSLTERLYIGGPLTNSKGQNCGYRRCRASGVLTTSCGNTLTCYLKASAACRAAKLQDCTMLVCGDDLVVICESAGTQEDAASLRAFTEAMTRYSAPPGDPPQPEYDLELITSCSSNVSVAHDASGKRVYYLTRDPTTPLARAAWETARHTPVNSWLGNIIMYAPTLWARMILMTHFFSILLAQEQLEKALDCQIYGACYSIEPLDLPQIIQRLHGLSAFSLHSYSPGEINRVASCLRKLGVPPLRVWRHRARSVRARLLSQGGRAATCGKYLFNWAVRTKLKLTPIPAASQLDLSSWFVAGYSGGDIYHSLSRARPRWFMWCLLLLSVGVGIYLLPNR
Assay: Inhibitory activity against HCV 2a NS5B RNA polymerase
Design: species or system Hepatitis C virus genotype 2
pIC50: −log10 of the molar value.

[
  {
    "smiles entry": "O=c1c(C2=Nc3ccccc3S(=O)(=O)N2)c(O)c2cc(F)ccc2n1CCC1CC1",
    "pIC50": 7.89
  }
]

* * *

Experiment: Half life in Beagle dog at 0.8 mg/kg, iv or 4.0mg/kg, po
Type: ADME, organism-based, Canis lupus familiaris
Set-up: dose 0.8 mg/kg
Conditions: in vivo

[
  {
    "smiles entry": "O=c1c(C2=Nc3ccccc3S(=O)(=O)N2)c(O)c2cc(F)ccc2n1CCC1CC1",
    "half-life": "1.72 h"
  }
]

* * *

Assay: Half life in Beagle dog at 0.8 mg/kg, iv or 1.8 mg/kg, po
Format: ADME, organism-based, Canis lupus familiaris
Conditions: in vivo

[
  {
    "smiles entry": "CC(C)CCn1c(=O)c(C2=NS(=O)(=O)c3ccccc3N2)c(O)c2ccccc21",
    "u": "h",
    "half-life": 14.3
  }
]

* * *

Experiment: Cmax in Sprague-Dawley rat at 1.2 mg/kg, iv or 3.7 mg/kg, po
Assay type: ADME, organism-based
Settings: in vivo

[
  {
    "smiles entry": "Cc1ccc2c(c1)c(O)c(C1=NS(=O)(=O)c3ccccc3N1)c(=O)n2CCC(C)C",
    "Cmax [ng/mL]": 1220
  }
]

* * *

Assay: Volume of distribution in cynomolgus monkey at 0.8 mg/kg, iv or 4.0 mg/kg, po
Assay type: ADME, organism-based, Macaca fascicularis
Details: in vivo, read-out: Vdss
quantity: Vd (L/kg)

[
  {
    "smiles entry": "O=c1c(C2=Nc3ccccc3S(=O)(=O)N2)c(O)c2cc(F)ccc2n1CCC1CC1",
    "quantity": "Vd",
    "test result": 0.11
  }
]

* * *

Target: RNA-directed RNA polymerase (Hepacivirus hominis)
Assay: Inhibitory activity against HCV delta 21 NS5B RNA polymerase by SPA assay
Parameters: species or system Hepatitis C virus subtype 1b
pIC50: −log10 of the molar value.
Entries annotated with measured pIC50

[
  {
    "compound": "CC(=O)Nc1ccc2c(c1)c(O)c(C1=NS(=O)(=O)c3ccccc3N1)c(=O)n2CCC(C)C",
    "bound operator": "<",
    "pIC50": 5.00
  },
  {
    "compound": "O=c1c(C2=Nc3ccccc3S(=O)(=O)N2)c(O)c2ccccc2n1Cc1ccccc1[N+](=O)[O-]",
    "bound operator": "<",
    "pIC50": 5.00
  },
  {
    "compound": "CC(C)CCn1c(=O)c(C2=Nc3ccccc3S(=O)(=O)N2)c(O)c2ccc(F)cc21",
    "bound operator": "=",
    "pIC50": 6.26
  },
  {
    "compound": "CC(C)CCn1c(=O)c(C2=Nc3ccccc3S(=O)(=O)N2)c(O)c2cc(N)ccc21",
    "bound operator": "=",
    "pIC50": 7.21
  },
  {
    "compound": "CCOC(=O)n1c(=O)c(C2=NS(=O)(=O)c3ccccc3N2)c(O)c2ccccc21",
    "bound operator": "=",
    "pIC50": 5.69
  },
  {
    "compound": "CC(C)CCn1c(=O)c(C2=Nc3ccccc3S(=O)(=O)N2)c(O)c2cc(OCC(N)=O)ccc21",
    "bound operator": "=",
    "pIC50": 7.62
  },
  {
    "compound": "CC(C)CCn1c(=O)c(C2=NS(=O)(=O)c3ccccc3N2)c(O)c2cc(I)ccc21",
    "bound operator": "<",
    "pIC50": 5.00
  },
  {
    "compound": "O=c1c(C2=NS(=O)(=O)c3ccccc3N2)c(O)c2ccccc2n1CC1CCOC1 (stereo not drawn)",
    "bound operator": "=",
    "pIC50": 6.32
  },
  {
    "compound": "C=CCCn1c(=O)c(C2=NS(=O)(=O)c3ccccc3N2)c(O)c2ccccc21",
    "bound operator": "=",
    "pIC50": 7.05
  },
  {
    "compound": "CC(C)CCn1c(=O)c(C2=Nc3ccccc3S(=O)(=O)N2)c(O)c2cccc([N+](=O)[O-])c21",
    "bound operator": "<",
    "pIC50": 5.00
  },
  {
    "compound": "CC(C)CCn1c(=O)c(C2=Nc3ccccc3S(=O)(=O)N2)c(O)c2ccc(C(=O)O)cc21",
    "bound operator": "<",
    "pIC50": 5.00
  },
  {
    "compound": "C/C=C/Cn1c(=O)c(C2=Nc3ccccc3S(=O)(=O)N2)c(O)c2ccccc21",
    "bound operator": "=",
    "pIC50": 6.82
  },
  {
    "compound": "CC(C)CCn1c(=O)c(C2=Nc3ccccc3S(=O)(=O)N2)c(O)c2cc(F)ccc21",
    "bound operator": "=",
    "pIC50": 7.70
  },
  {
    "compound": "O=c1c(C2=NS(=O)(=O)c3ccccc3N2)c(O)c2ccccc2n1CCC1CC1",
    "bound operator": "=",
    "pIC50": 7.89
  },
  {
    "compound": "CC1CC1Cn1c(=O)c(C2=Nc3ccccc3S(=O)(=O)N2)c(O)c2ccccc21 (stereo not drawn)",
    "bound operator": "=",
    "pIC50": 7.39
  },
  {
    "compound": "O=c1c(C2=NS(=O)(=O)c3ccccc3N2)c(O)c2ccccc2n1Cc1ccc(Br)cc1",
    "bound operator": "=",
    "pIC50": 7.02
  },
  {
    "compound": "Cc1cccc2c1c(O)c(C1=Nc3ccccc3S(=O)(=O)N1)c(=O)n2CCC(C)C",
    "bound operator": "=",
    "pIC50": 6.69
  },
  {
    "compound": "CS(=O)(=O)CCn1c(=O)c(C2=Nc3ccccc3S(=O)(=O)N2)c(O)c2ccccc21",
    "bound operator": "=",
    "pIC50": 5.63
  }
]

* * *

Biological target: RNA-directed RNA polymerase (Hepacivirus hominis, UniProt O39930)
Experiment: Inhibitory activity against HCV 1a NS5B RNA polymerase
pIC50: −log10 of the molar value.
quantity: pIC50

[
  {
    "smiles entry": "O=c1c(C2=Nc3ccccc3S(=O)(=O)N2)c(O)c2cc(F)ccc2n1CCC1CC1",
    "quantity": "pIC50",
    "test result": 7.31
  }
]

* * *

Assay: Oral bioavailability in Beagle dog at 0.8 mg/kg, iv or 4.0 mg/kg, po
Type: ADME, organism-based, Canis lupus familiaris
Details: in vivo
quantity: bioavailability

[
  {
    "smiles entry": "O=c1c(C2=Nc3ccccc3S(=O)(=O)N2)c(O)c2cc(F)ccc2n1CCC1CC1",
    "test result": "> 35%"
  }
]

* * *

Assay: Cmax in cynomolgus monkey at 1.0 mg/kg, iv or 3.6 mg/kg, po
Format: ADME, organism-based, Macaca fascicularis
Details: in vivo
quantity: Cmax (ng/mL)

[
  {
    "smiles entry": "Cc1ccc2c(c1)c(O)c(C1=NS(=O)(=O)c3ccccc3N1)c(=O)n2CCC(C)C",
    "test result": 2140
  }
]

* * *

Experiment: Volume of distribution in Beagle dog at 0.9 mg/kg, iv or 3.6 mg/kg, po
Format: ADME, organism-based, Canis lupus familiaris
Details: in vivo, read-out: Vdss

[
  {
    "smiles entry": "Cc1ccc2c(c1)c(O)c(C1=NS(=O)(=O)c3ccccc3N1)c(=O)n2CCC(C)C",
    "Vd / L/kg": 0.72
  }
]

* * *

Assay: Clearance in Beagle dog at 0.9 mg/kg, iv or 3.6 mg/kg, po
Assay type: ADME, organism-based, Canis lupus familiaris
Conditions: in vivo
quantity: clearance (mL/min/kg)

[
  {
    "smiles entry": "Cc1ccc2c(c1)c(O)c(C1=NS(=O)(=O)c3ccccc3N1)c(=O)n2CCC(C)C",
    "quantity": "clearance",
    "test result": 1.09
  }
]

* * *

Target: RNA-directed RNA polymerase (Hepacivirus hominis)
Assay: Inhibitory activity against HCV delta 21 NS5B RNA polymerase by SPA assay
Set-up: species or system Hepatitis C virus subtype 1b
pIC50: −log10 of the molar value.
Recorded measurements of pIC50, one per entry
quantity: pIC50

[
  {
    "smiles entry": "O=c1c(C2=Nc3ccccc3S(=O)(=O)N2)c(O)c2ccccc2n1Cc1cccc([N+](=O)[O-])c1",
    "quantity": "pIC50",
    "bound operator": "=",
    "test result": 7.09
  },
  {
    "smiles entry": "CCOC(=O)CNc1ccc2c(c1)c(O)c(C1=Nc3ccccc3S(=O)(=O)N1)c(=O)n2CCC(C)C",
    "quantity": "pIC50",
    "bound operator": "=",
    "test result": 6.94
  },
  {
    "smiles entry": "O=c1c(C2=NS(=O)(=O)c3ccccc3N2)c(O)c2ccccc2n1CCc1ccsc1",
    "quantity": "pIC50",
    "bound operator": "<",
    "test result": 5.00
  },
  {
    "smiles entry": "C#CCCn1c(=O)c(C2=NS(=O)(=O)c3ccccc3N2)c(O)c2ccccc21",
    "quantity": "pIC50",
    "bound operator": "=",
    "test result": 6.93
  },
  {
    "smiles entry": "O=c1c(C2=Nc3ccccc3S(=O)(=O)N2)c(O)c2cccc(F)c2n1CCC1CC1",
    "quantity": "pIC50",
    "bound operator": "=",
    "test result": 7.05
  }
]
